Provenance of the data: ChEMBL document CHEMBL1130694

measurement description: Ratio of LD50 to PD50 was evaluated.
Assay type: ADME, organism-based
run conditions: mouse, in vivo
Positions of bridges follow the written chain, without caps; N, C: chain ends. Non-standard residues stand in square brackets, D forms with d. Residues, ends and D or L forms follow the SMILES beside them. *: point of attachment. Heptanoyl(6-Me) = CC(C)CCCCC(=O)*; Dab = NCC[C@H](N)C(=O)O
recorded metric: selectivity ratio

See these solved cases before continuing.
CC(C)CCCCC(=O)N[C@@H](CCN)C(=O)N[C@H](C(=O)N[C@@H](CCN)C(=O)N[C@H]1CCNC(=O)[C@H]([C@@H](C)O)NC(=O)[C@H](CCNC(=O)[C@@H](N)Cc2ccc(O)cc2)NC(=O)[C@H](CCN)NC(=O)[C@H](CC(C)C)NC(=O)[C@@H](Cc2ccccc2)NC(=O)[C@H](CCN)NC1=O)[C@@H](C)O; 8.6
CC(C)CCCCC(=O)N[C@@H](CCN)C(=O)N[C@H](C(=O)N[C@@H](CCN)C(=O)N[C@H]1CCNC(=O)[C@H]([C@@H](C)O)NC(=O)[C@H](CCNC(=O)[C@@H](N)CCCN=C(N)N)NC(=O)[C@H](CCN)NC(=O)[C@H](CC(C)C)NC(=O)[C@@H](Cc2ccccc2)NC(=O)[C@H](CCN)NC1=O)[C@@H](C)O; 60
CC(C)CCCCC(=O)N[C@@H](CCNC(=O)CN)C(=O)N[C@H](C(=O)N[C@@H](CCN)C(=O)N[C@H]1CCNC(=O)[C@H]([C@@H](C)O)NC(=O)[C@H](CCN)NC(=O)[C@H](CCN)NC(=O)[C@H](CC(C)C)NC(=O)[C@@H](Cc2ccccc2)NC(=O)[C@H](CCN)NC1=O)[C@@H](C)O; 2.8

Return reported selectivity ratio values for all items listed beneath this line.
1. CCCCCCC(N)C(=O)NCC[C@@H]1NC(=O)[C@H](CCN)NC(=O)[C@H](CC(C)C)NC(=O)[C@@H](Cc2ccccc2)NC(=O)[C@H](CCN)NC(=O)[C@@H](NC(=O)[C@H](CCN)NC(=O)[C@@H](NC(=O)[C@H](CCN)NC(=O)CCCCC(C)C)[C@@H](C)O)CCNC(=O)[C@H]([C@@H](C)O)NC1=O (stereo partly specified)
2. CC(C)CCCCC(=O)N[C@@H](CCN)C(=O)N[C@H](C(=O)N[C@@H](CCN)C(=O)N[C@H]1CCNC(=O)[C@H]([C@@H](C)O)NC(=O)[C@H](CCNC(=O)[C@@H](N)C[C@H](CCN)C(=O)OCc2ccccc2)NC(=O)[C@H](CCN)NC(=O)[C@H](CC(C)C)NC(=O)[C@@H](Cc2ccccc2)NC(=O)[C@H](CCN)NC1=O)[C@@H](C)O

Output:
1. 1.7
2. 6.5

Input: Can you look up the measured selectivity ratio of CC(C)CCCCC(=O)N[C@@H](CCN)C(=O)N[C@H](C(=O)N[C@@H](CCN)C(=O)N[C@H]1CCNC(=O)[C@H]([C@@H](C)O)NC(=O)[C@H](CCN)NC(=O)[C@H](CCN)NC(=O)[C@H](CC(C)C)NC(=O)[C@@H](Cc2ccccc2)NC(=O)[C@H](CCN)NC1=O)[C@@H](C)O ({Heptanoyl(6-Me)}-[Dab]T[Dab][Dab][Dab][dF]L[Dab][Dab]T; lactam 4-C) for me?
Output: 4.5
